target: HSP60/HSP10 (Homo sapiens, UniProt P10809); assay: Inhibition of human mitochondrial HSP60/HSP10-ATPase activity expressed in Escherichia coli DH5alpha/BL21 (DE3) assessed as inhibition of denatured MDH refolding preincubated for 10 mins followed by ATP addition measured after 40 to 60 mins by malachite green dye based fluorescence assay
Sequence (P10809 whole entry): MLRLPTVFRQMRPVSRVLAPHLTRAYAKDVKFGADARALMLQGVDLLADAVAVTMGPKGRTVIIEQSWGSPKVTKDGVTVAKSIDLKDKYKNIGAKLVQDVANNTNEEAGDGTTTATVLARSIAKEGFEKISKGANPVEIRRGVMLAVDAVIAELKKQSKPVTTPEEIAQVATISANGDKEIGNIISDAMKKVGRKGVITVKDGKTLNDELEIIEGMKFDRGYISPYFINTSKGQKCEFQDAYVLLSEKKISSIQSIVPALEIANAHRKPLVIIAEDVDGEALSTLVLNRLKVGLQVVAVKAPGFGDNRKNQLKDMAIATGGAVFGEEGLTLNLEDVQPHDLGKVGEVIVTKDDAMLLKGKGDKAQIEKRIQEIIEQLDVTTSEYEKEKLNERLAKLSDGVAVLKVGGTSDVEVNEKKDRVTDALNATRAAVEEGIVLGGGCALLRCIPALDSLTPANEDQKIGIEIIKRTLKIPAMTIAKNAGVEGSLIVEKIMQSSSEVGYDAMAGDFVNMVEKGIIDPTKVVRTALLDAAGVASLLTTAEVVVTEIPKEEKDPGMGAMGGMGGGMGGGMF
Sequence (P61604 whole entry, further chain): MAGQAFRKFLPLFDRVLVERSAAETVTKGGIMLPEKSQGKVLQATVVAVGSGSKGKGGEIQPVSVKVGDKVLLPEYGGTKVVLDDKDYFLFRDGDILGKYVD
assay endpoint: pIC50
# pIC50 is unitless: minus log10 of the molar concentration; print number only

Query: Report measured pIC50; entry is "Nc1ccc(S(=O)(=O)Nc2ccc(-c3nc4cc(NS(=O)(=O)c5ccc(N)cc5)ccc4o3)cc2)cc1"
Result: 3.65

Query: Give pIC50 for the following molecule: "O=S(=O)(Nc1ccc(-c2nc3cc(NS(=O)(=O)c4ccc(O)cc4)ccc3o2)cc1)c1ccc(O)cc1"
Result: 4.23

Query: Entry "O=S(=O)(Nc1ccc(-c2nc3cc(NS(=O)(=O)c4ccccc4O)ccc3o2)cc1)c1ccccc1O" needs its pIC50 filled in; supply it.
Result: 4.48
